Provide the reported IC50 of each item.
target: Cyclin-dependent kinase 2/cyclin E1 (Homo sapiens, UniProt P24941); assay: biochemical
Give bare numbers, in nM.

Examples from the recorded data:
given_smiles=O=C1NC(=O)c2c1c1c3ccccc3[nH]c1c1[nH]c3cc(Br)ccc3c21 measured_endpoint=IC50 result=229
given_smiles=CCN(CC)C(=O)c1ccc(Nc2nc(OCC3CCCCC3)c3nc[nH]c3n2)cc1 measured_endpoint=IC50 result=1100
given_smiles=CC[C@H](CO)Nc1nc(Nc2cccc(-c3ccccn3)c2)c2ncn(C(C)C)c2n1 measured_endpoint=IC50 result=93
given_smiles=Nc1cc(Nc2ccc(S(N)(=O)=O)cc2)ncn1 measured_endpoint=IC50 result=1900

Each compound below has a recorded value; state its IC50.
1. O=C1Nc2ccccc2/C1=C\c1c(Cl)[nH]c2ccccc12
2. Nc1n[nH]c2nc3ccccc3nc12
3. CCn1cnc2c(Nc3cccc(Cl)c3)nc(N[C@@H]3CCCC[C@@H]3N)nc21
4. CCOC(=O)c1cnc2oc3ccc(O)cc3c2c1-c1ccccc1
5. CN1CCN(c2ccc(Nc3ncc4cc(C#N)c(=O)n(C5CCCC5)c4n3)cc2)CC1

1. 9400
2. 5600
3. 26
4. 14300
5. 377

====

Provide the reported IC50 of each item.
target: Cyclin-dependent kinase 5/CDK5 activator 1 (Homo sapiens, UniProt Q00535)
Sequence (Q00535 whole entry): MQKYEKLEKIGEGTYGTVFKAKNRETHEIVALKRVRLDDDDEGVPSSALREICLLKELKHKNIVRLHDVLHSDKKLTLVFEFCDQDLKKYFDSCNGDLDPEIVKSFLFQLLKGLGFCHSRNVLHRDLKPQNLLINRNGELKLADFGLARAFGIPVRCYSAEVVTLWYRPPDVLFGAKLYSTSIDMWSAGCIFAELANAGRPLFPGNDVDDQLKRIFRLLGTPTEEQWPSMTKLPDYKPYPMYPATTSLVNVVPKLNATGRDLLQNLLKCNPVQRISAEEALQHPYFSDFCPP
Sequence (Q15078 whole entry, further chain): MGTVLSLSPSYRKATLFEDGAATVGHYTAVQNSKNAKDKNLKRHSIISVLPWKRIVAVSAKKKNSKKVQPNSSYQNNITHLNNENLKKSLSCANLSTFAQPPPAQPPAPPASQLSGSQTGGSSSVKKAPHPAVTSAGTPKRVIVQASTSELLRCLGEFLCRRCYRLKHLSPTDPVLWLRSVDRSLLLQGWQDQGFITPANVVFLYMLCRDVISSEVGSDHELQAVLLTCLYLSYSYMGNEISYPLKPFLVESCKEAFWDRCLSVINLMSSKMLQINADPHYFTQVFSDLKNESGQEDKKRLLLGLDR
Answers are plain numbers, in µM.

Examples from the recorded data:
given_smiles=Nc1nc(Nc2ccc(S(N)(=O)=O)cc2)nn1C(=S)Nc1c(F)cccc1F subject_of_test="Cyclin-dependent kinase 5/CDK5 activator 1 (Homo sapiens, UniProt Q00535)" result=0.0002
given_smiles=O=C1NC(=O)c2c1c1c3ccccc3[nH]c1c1[nH]c3cc(Br)ccc3c21 subject_of_test="Cyclin-dependent kinase 5/CDK5 activator 1 (Homo sapiens, UniProt Q00535)" result=0.154
given_smiles=COc1ccc(CNc2nc(N(CCO)CCO)nc3c2ncn3C(C)C)cc1 subject_of_test="Cyclin-dependent kinase 5/CDK5 activator 1 (Homo sapiens, UniProt Q00535)" result=0.419
given_smiles=CN1CCN(c2ccc(Nc3ncc4cc(C#N)c(=O)n(C5CCCC5)c4n3)cc2)CC1 subject_of_test="Cyclin-dependent kinase 5/CDK5 activator 1 (Homo sapiens, UniProt Q00535)" result=0.272
given_smiles=CC[C@H](CO)Nc1nc(Nc2cccc(-c3ccccn3)c2)c2ncn(C(C)C)c2n1 subject_of_test="Cyclin-dependent kinase 5/CDK5 activator 1 (Homo sapiens, UniProt Q00535)" result=0.215
given_smiles=CC(C)c1cnc(NC(=O)Cc2ccccc2)s1 subject_of_test="Cyclin-dependent kinase 5/CDK5 activator 1 (Homo sapiens, UniProt Q00535)" result=0.458
given_smiles=CCN(CC)C(=O)c1ccc(Nc2nc(OCC3CCCCC3)c3nc[nH]c3n2)cc1 subject_of_test="Cyclin-dependent kinase 5/CDK5 activator 1 (Homo sapiens, UniProt Q00535)" result=8.8
given_smiles=O=C1Nc2ccccc2/C1=C\c1c(Cl)[nH]c2ccccc12 subject_of_test="Cyclin-dependent kinase 5/CDK5 activator 1 (Homo sapiens, UniProt Q00535)" result=5.8
given_smiles=OCCCNc1cc(-c2ccnc(Nc3cccc(Cl)c3)n2)ccn1 subject_of_test="Cyclin-dependent kinase 5/CDK5 activator 1 (Homo sapiens, UniProt Q00535)" result=0.01
given_smiles=Nc1n[nH]c2nc3ccccc3nc12 subject_of_test="Cyclin-dependent kinase 5/CDK5 activator 1 (Homo sapiens, UniProt Q00535)" result=13.7

Each compound below has a recorded value; state its IC50.
1. O=C1NC(=O)c2c1c1c3ccccc3[nH]c1c1[nH]c3ccccc3c21
2. CCCOc1cnc(CN/C=C2\C(=O)NC(=O)c3ccc(I)cc32)cc1O
3. CCCCOc1c(C(=O)c2c(F)cc(C)cc2F)c[nH]c2nncc1-2
4. O=C1Nc2ccc3ncsc3c2/C1=C/Nc1ccc(S(=O)(=O)Nc2ccccn2)cc1
5. CCn1cnc2c(Nc3cccc(Cl)c3)nc(N[C@@H]3CCCC[C@@H]3N)nc21

1. 0.936
2. 1.2
3. 0.258
4. 0.007
5. 0.026

====

Provide the reported IC50 of each item.
target: Cyclin-dependent kinase 4/cyclin D1 (Homo sapiens, UniProt P11802); assay: biochemical
Sequence (P11802 whole entry): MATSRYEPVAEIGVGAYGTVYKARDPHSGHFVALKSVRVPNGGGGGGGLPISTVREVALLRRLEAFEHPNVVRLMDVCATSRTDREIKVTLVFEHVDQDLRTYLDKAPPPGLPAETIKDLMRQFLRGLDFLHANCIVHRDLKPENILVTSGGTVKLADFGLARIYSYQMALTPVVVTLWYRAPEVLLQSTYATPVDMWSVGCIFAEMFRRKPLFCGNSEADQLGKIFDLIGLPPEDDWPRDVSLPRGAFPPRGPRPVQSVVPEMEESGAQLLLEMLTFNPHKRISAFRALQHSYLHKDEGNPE
Sequence (P24385 whole entry, further chain): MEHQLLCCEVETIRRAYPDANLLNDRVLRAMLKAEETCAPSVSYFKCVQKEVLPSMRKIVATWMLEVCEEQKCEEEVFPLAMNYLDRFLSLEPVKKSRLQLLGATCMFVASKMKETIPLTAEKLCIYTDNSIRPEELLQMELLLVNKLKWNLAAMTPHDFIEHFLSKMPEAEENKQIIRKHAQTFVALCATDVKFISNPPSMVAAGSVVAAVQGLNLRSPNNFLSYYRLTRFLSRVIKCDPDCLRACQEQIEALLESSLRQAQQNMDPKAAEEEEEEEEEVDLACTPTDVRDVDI

compound=CC[C@H](CO)Nc1nc(Nc2cccc(-c3ccccn3)c2)c2ncn(C(C)C)c2n1 result="> 20 µM"

Each compound below has a recorded value; state its IC50.
1. COc1ccc(CNc2nc(N(CCO)CCO)nc3c2ncn3C(C)C)cc1
2. Nc1n[nH]c2nc3ccccc3nc12 [QUINOXALINE1]

> 20 µM
> 20 µM

====

molecular target: Cyclin-dependent kinase 1/cyclin B1 (Homo sapiens, UniProt P06493); assay: biochemical
Sequence (P06493 whole entry): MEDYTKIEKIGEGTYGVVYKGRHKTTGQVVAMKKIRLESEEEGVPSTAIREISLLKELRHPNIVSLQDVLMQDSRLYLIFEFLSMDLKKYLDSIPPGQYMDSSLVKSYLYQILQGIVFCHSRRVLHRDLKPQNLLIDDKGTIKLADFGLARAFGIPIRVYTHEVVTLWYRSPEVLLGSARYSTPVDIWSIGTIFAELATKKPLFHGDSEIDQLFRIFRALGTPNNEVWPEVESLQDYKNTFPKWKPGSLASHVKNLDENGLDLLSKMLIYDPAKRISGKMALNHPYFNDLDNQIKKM
Sequence (P14635 whole entry, further chain): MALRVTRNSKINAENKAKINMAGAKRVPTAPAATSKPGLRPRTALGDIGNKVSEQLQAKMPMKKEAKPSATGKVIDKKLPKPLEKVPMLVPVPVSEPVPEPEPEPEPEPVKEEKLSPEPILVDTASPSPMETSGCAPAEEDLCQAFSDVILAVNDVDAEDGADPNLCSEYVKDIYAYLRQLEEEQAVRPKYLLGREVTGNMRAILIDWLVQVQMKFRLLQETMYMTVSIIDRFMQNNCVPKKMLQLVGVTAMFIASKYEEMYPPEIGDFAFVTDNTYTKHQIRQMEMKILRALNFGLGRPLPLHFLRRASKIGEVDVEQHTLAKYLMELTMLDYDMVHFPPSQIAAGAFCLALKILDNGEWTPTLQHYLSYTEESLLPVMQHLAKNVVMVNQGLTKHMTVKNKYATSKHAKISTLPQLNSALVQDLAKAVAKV
measured.endpoint: IC50

given_smiles=Cc1ccc(NC2=CC(=O)c3sc(C)nc3C2=O)cc1 result="> 20 µM"
given_smiles=CCOC(=O)c1cnc2oc3ccc(O)cc3c2c1-c1ccccc1 result="> 20 µM"
given_smiles=CC(=O)c1cnc2oc3ccc(O)cc3c2c1-c1ccccc1 result="> 20 µM"

Reported IC50 ( "COc1ccc(OC)c2c(=S)c3ccccc3[nH]c12" ) = > 20 µM

====

Provide the reported IC50 of each item.
target: Cyclin-dependent kinase 2/cyclin E1 (Homo sapiens, UniProt P24941); assay: biochemical

Examples from the recorded data:
given_smiles=Cc1ccc(NC2=CC(=O)c3sc(C)nc3C2=O)cc1 result="> 20 µM"
given_smiles=CC(=O)c1cnc2oc3ccc(O)cc3c2c1-c1ccccc1 result="> 20 µM"

Reported IC50 ( "COc1ccc(OC)c2c(=S)c3ccccc3[nH]c12" ) = > 20 µM

====

Dear all, this message contains IC50 results, target or system Cyclin-dependent kinase 5/CDK5 activator 1 (Homo sapiens).

given_smiles=CCOC(=O)c1cnc2oc3ccc(O)cc3c2c1-c1ccccc1 measured_endpoint=IC50 result="> 20 µM"

Each molecule below has a recorded value; state its IC50.
1. CN(C)C(=O)c1cc2cnc(Nc3ccc(N4CCNCC4)cn3)nc2n1C1CCCC1
2. CCNc1cc(N[C@H]2CC[C@H](O)CC2)nc(Nc2ccc3c(ccn3Cc3ccccc3)c2)n1
3. COc1ccc(OC)c2c(=S)c3ccccc3[nH]c12
4. Cc1ccc(NC2=CC(=O)c3sc(C)nc3C2=O)cc1

1. > 20 µM
2. > 10 µM
3. > 20 µM
4. > 20 µM
